Attribution: ChEMBL document CHEMBL3774328

Observed Ki, system ATP-dependent translocase ABCB1 (Homo sapiens).
Result Type: Ki (µM)

[[record]]
smiles_structure = "CC(=O)O[C@H]1CC[C@](C)(OC(=O)CN2CCOCC2)[C@]23OC(C)(C)[C@H]([C@H](OC(=O)/C=C/c4ccccc4)[C@H](OC(=O)c4ccccc4)[C@]12C)[C@H]3OC(C)=O"
result_type = "Ki"
display_unit = "µM"
data_value = 0.31

[[record]]
smiles_structure = "CC(=O)O[C@H]1CC[C@](C)(O)[C@]23OC(C)(C)[C@H]([C@H](OC(=O)/C=C/c4ccccc4)[C@H](OC(=O)c4ccccc4)[C@]12C)[C@H]3OC(=O)C1CC1"
result_type = "Ki"
display_unit = "µM"
data_value = 0.24

[[record]]
smiles_structure = "CC(=O)O[C@H]1CC[C@](C)(O)[C@]23OC(C)(C)[C@H]([C@H](OC(=O)/C=C/c4ccccc4)[C@H](OC(=O)c4ccccc4)[C@]12C)[C@H]3OC(=O)CCC(=O)N(C(=O)NC1CCCCC1)C1CCCCC1"
result_type = "Ki"
display_unit = "µM"
data_value = 0.19

